Let's look at some molecules and their measured MIC.
Tested on: P. aeruginosa Ps296 expressing VIM-2
Test: Broth microdilution MIC assay, partner meropenem
Assay type: cell-based
Conditions: Pseudomonas aeruginosa, read-out: MIC of Exemplary Compounds in presence of fixed β-lactams, Fixed Mero, P. aerug. Ps296 VIM-2
MEASURED ATTRIBUTE: MIC

[[record]]
cpd_smiles = "O=C(N[C@H]1Cc2cccc(C(=O)O)c2OB1O)c1cnco1"
measured_attribute = "MIC"
result = "8 to 32 µg/mL"

[[record]]
cpd_smiles = "O=C(N[C@H]1Cc2cccc(C(=O)O)c2OB1O)c1cnc2[nH]ccc2c1"
measured_attribute = "MIC"
result = "< 4 µg/mL"

[[record]]
cpd_smiles = "O=C(Cc1ccc(O)c(O)c1)N[C@H]1Cc2cccc(C(=O)O)c2OB1O"
measured_attribute = "MIC"
result = "8 to 32 µg/mL"

[[record]]
cpd_smiles = "NCCn1ccc2ccc(C(=O)N[C@H]3Cc4cccc(C(=O)O)c4OB3O)cc21"
measured_attribute = "MIC"
result = "8 to 32 µg/mL"

[[record]]
cpd_smiles = "Cn1ccc2ccc(C(=O)N[C@H]3Cc4cccc(C(=O)O)c4OB3O)cc21"
measured_attribute = "MIC"
result = "> 32 µg/mL"

[[record]]
cpd_smiles = "O=C(O)c1cccc2c1OB(O)[C@@H](NC(=O)c1cccc3[nH]ccc13)C2"
measured_attribute = "MIC"
result = "< 4 µg/mL"

[[record]]
cpd_smiles = "NCCNc1ccc(CC(=O)N[C@H]2Cc3cccc(C(=O)O)c3OB2O)cn1"
measured_attribute = "MIC"
result = "< 4 µg/mL"

[[record]]
cpd_smiles = "O=C(N[C@H]1Cc2cccc(C(=O)O)c2OB1O)c1ccc2c(c1)CCNC2"
measured_attribute = "MIC"
result = "> 32 µg/mL"

[[record]]
cpd_smiles = "O=C(N[C@H]1Cc2cccc(C(=O)O)c2OB1O)c1ccc2c(c1)CNC2"
measured_attribute = "MIC"
result = "< 4 µg/mL"


* * *

Let's look at some compounds and their measured IC50.
Biological target: VIM-2 (Escherichia coli, UniProt Q5U7L7)
Construct: made in house; host or cells: E. coli BL21(DE3)
Assay: β-Lactamase enzyme inhibition assay, VIM-2 (nitrocefin substrate)
Assay type: biochemical
Conditions: nitrocefin substrate 100 μM, 15 min preincubation at 37° C.; read-out: IC50, Class B VIM-2
MEASURED ATTRIBUTE: IC50

[[record]]
compound = "NCCNc1ccc(CC(=O)N[C@H]2Cc3cccc(C(=O)O)c3OB2O)cc1 [Example 57]"
measured_attribute = "IC50"
result = "1000 to 10000 nM"

[[record]]
compound = "CN1CCc2c(C(=O)N[C@H]3Cc4cccc(C(=O)O)c4OB3O)csc2C1 [Example 6]"
measured_attribute = "IC50"
result = "1000 to 10000 nM"

[[record]]
compound = "NCCNC(=O)c1ccccc1C(=O)N[C@H]1Cc2cccc(C(=O)O)c2OB1O [Example 54]"
measured_attribute = "IC50"
result = "1000 to 10000 nM"

[[record]]
compound = "O=C(O)c1cccc2c1OB(O)[C@@H](NC(=O)C(F)(F)c1ccccc1)C2 [Example 2]"
measured_attribute = "IC50"
result = "1000 to 10000 nM"

[[record]]
compound = "CC(C)NCc1ccc(C(=O)N[C@H]2Cc3cccc(C(=O)O)c3OB2O)cc1CNC(C)C [Example 56]"
measured_attribute = "IC50"
result = "100 to 1000 nM"

[[record]]
compound = "NCCn1ccc2ccc(C(=O)N[C@H]3Cc4cccc(C(=O)O)c4OB3O)cc21 [Example 41]"
measured_attribute = "IC50"
result = "< 100 nM"

[[record]]
compound = "O=C(O)c1cccc2c1OB(O)[C@@H](NC(=O)C1(c3ccccc3)CC1)C2 [Example 1]"
measured_attribute = "IC50"
result = "100 to 1000 nM"

[[record]]
compound = "Cn1ccc2ccc(C(=O)N[C@H]3Cc4cccc(C(=O)O)c4OB3O)cc21 [Example 43]"
measured_attribute = "IC50"
result = "100 to 1000 nM"

[[record]]
compound = "O=C(N[C@H]1Cc2cccc(C(=O)O)c2OB1O)c1cnco1 [Example 52]"
measured_attribute = "IC50"
result = "100 to 1000 nM"


* * *

System: K. pneumoniae 156319 expressing KPC-3
Test: Broth microdilution MIC assay, partner meropenem
Format: cell-based
Conditions: Klebsiella pneumoniae, read-out: MIC of Exemplary Compounds in presence of fixed β-lactams, Fixed Mero, K.P. 156319 KPC-3
MEASURED ATTRIBUTE: MIC

[[record]]
cpd_smiles = "NCCNc1ccc(CC(=O)N[C@H]2Cc3cccc(C(=O)O)c3OB2O)cc1"
result = "8 to 32 µg/mL"

[[record]]
cpd_smiles = "O=C(N[C@H]1Cc2cccc(C(=O)O)c2OB1O)c1ccc2nccnc2c1"
result = "< 4 µg/mL"

[[record]]
cpd_smiles = "NCCNC(=O)c1ccccc1C(=O)N[C@H]1Cc2cccc(C(=O)O)c2OB1O"
result = "8 to 32 µg/mL"

[[record]]
cpd_smiles = "N=C(N)N1Cc2ccc(CC(=O)N[C@H]3Cc4cccc(C(=O)O)c4OB3O)cc2C1"
result = "< 4 µg/mL"

[[record]]
cpd_smiles = "NCCN1Cc2ccc(C(=O)N[C@H]3Cc4cccc(C(=O)O)c4OB3O)cc2C1"
result = "< 4 µg/mL"


* * *

Let's look at some compounds and their measured IC50.
Target: VIM-2 (Escherichia coli, UniProt Q5U7L7)
Construct: made in house; host or cells: E. coli BL21(DE3)
Assay: β-Lactamase enzyme inhibition assay, VIM-2 (nitrocefin substrate)
Type: biochemical
Conditions: nitrocefin substrate 100 μM, 15 min preincubation at 37° C.; read-out: IC50, Class B VIM-2
MEASURED ATTRIBUTE: IC50

[[record]]
cpd_smiles = "CC(C)NCc1cc(C(=O)N[C@H]2Cc3cccc(C(=O)O)c3OB2O)ccc1CN"
measured_attribute = "IC50"
result = "100 to 1000 nM"

[[record]]
cpd_smiles = "NCCNc1ccc(CC(=O)N[C@H]2Cc3cccc(C(=O)O)c3OB2O)c[n+]1[O-]"
measured_attribute = "IC50"
result = "100 to 1000 nM"

[[record]]
cpd_smiles = "NC1=NCc2ccc(C(=O)N[C@H]3Cc4cccc(C(=O)O)c4OB3O)cc2CN1"
measured_attribute = "IC50"
result = "< 100 nM"

[[record]]
cpd_smiles = "O=C(N[C@H]1Cc2cccc(C(=O)O)c2OB1O)c1ccc2c(c1)CNC2"
measured_attribute = "IC50"
result = "< 100 nM"

[[record]]
cpd_smiles = "NCCOc1ccc(CC(=O)N[C@H]2Cc3cccc(C(=O)O)c3OB2O)cc1O"
measured_attribute = "IC50"
result = "100 to 1000 nM"

[[record]]
cpd_smiles = "NCCn1ccc2c(C(=O)N[C@H]3Cc4cccc(C(=O)O)c4OB3O)cccc21"
measured_attribute = "IC50"
result = "100 to 1000 nM"

[[record]]
cpd_smiles = "O=C(O)c1ccccc1C(=O)N[C@H]1Cc2cccc(C(=O)O)c2OB1O"
measured_attribute = "IC50"
result = "1000 to 10000 nM"

[[record]]
cpd_smiles = "O=C(Cc1cnc2c(c1)CCCN2)N[C@H]1Cc2cccc(C(=O)O)c2OB1O"
measured_attribute = "IC50"
result = "1000 to 10000 nM"

[[record]]
cpd_smiles = "O=C(N[C@H]1Cc2cccc(C(=O)O)c2OB1O)c1ccc2nc[nH]c2c1"
measured_attribute = "IC50"
result = "100 to 1000 nM"

[[record]]
cpd_smiles = "CN1Cc2ccc(C(=O)N[C@H]3Cc4cccc(C(=O)O)c4OB3O)cc2C1"
measured_attribute = "IC50"
result = "< 100 nM"

[[record]]
cpd_smiles = "O=C(N[C@H]1Cc2cccc(C(=O)O)c2OB1O)c1ccc2cc[nH]c2c1"
measured_attribute = "IC50"
result = "100 to 1000 nM"

[[record]]
cpd_smiles = "O=C(N[C@H]1Cc2cccc(C(=O)O)c2OB1O)c1ccc2c(c1)CN(Cc1cccnc1)C2"
measured_attribute = "IC50"
result = "100 to 1000 nM"

[[record]]
cpd_smiles = "O=C(O)c1cccc2c1OB(O)[C@@H](NC(=O)c1c[nH]c3ncccc13)C2"
measured_attribute = "IC50"
result = "1000 to 10000 nM"

[[record]]
cpd_smiles = "O=C(N[C@H]1Cc2cccc(C(=O)O)c2OB1O)c1ccc2nccnc2c1"
measured_attribute = "IC50"
result = "1000 to 10000 nM"

[[record]]
cpd_smiles = "N=C(N)N1Cc2ccc(C(=O)N[C@H]3Cc4cccc(C(=O)O)c4OB3O)cc2C1"
measured_attribute = "IC50"
result = "< 100 nM"

[[record]]
cpd_smiles = "O=C(N[C@H]1Cc2cccc(C(=O)O)c2OB1O)c1ccc(-c2ccncc2)cc1"
measured_attribute = "IC50"
result = "1000 to 10000 nM"

[[record]]
cpd_smiles = "NCc1cc(C(=O)N[C@H]2Cc3cccc(C(=O)O)c3OB2O)cnc1CN"
measured_attribute = "IC50"
result = "100 to 1000 nM"

